Taken from paper PMC4342496.

Biological target: CjIMPDHΔS (Campylobacter jejuni, UniProt Q0P9J4, INS91G/DEL92-195)
Construct: gene guaB
Sequence (Q0P9J4 1-485 INS91G/DEL92-195): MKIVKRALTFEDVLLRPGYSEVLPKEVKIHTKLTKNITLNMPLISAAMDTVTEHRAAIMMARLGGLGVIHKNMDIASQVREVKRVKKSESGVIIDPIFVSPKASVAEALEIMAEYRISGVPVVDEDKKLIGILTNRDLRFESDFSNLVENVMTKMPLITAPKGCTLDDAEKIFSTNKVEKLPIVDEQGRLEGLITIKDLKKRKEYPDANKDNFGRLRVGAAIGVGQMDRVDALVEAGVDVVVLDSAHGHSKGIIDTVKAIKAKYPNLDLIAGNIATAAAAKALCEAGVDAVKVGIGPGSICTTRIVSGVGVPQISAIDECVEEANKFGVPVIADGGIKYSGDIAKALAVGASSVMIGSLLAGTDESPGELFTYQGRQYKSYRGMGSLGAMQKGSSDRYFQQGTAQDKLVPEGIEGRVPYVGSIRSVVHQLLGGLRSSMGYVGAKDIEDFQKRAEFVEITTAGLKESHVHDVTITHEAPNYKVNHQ
Experiment: NADH production, A340
Assay type: biochemical
Settings: pH 8.0, 1 mM IMP, NAD+ about 2.5 x Km, 10 min preincubation, room temperature; read-out: IC50 / 3
PROPERTY NAME: pIC50
The read-out pIC50 is expressed as -log10 of concentration in moles per litre.

Exercise: Provide CjIMPDHΔS (Campylobacter jejuni, UniProt Q0P9J4, INS91G/DEL92-195) pIC50 reading for Cn1nc(CC(=O)Nc2ccc3oc4c(c3c2)CCCC4)c2ccccc2c1=O [compound 3] .
Solution: 6.70
